protocolNotes: melting temperature; fluorescence melt of hairpins on a sequencing array, two-state fit, raised by 9.35 °C to match UV melts
assaySetup: sodium 0.088 M
metric: Tm
The answer consists of two parts: a number and, after it, its unit.

GCTCTGCGAAAGCAGTGC ((.((((....)))).)) :: 62 °C
AACTCGAAAGAGTT (((((....))))) :: 50.7 °C
GATCGACGCTCGATC ((((((...)))))) :: 49.6 °C
GTAGACCGAAAGGTATAC (((.(((....))).))) :: 51.7 °C
GGCACCGGAAACGGTACC ((.((((....)))).)) :: 50.7 °C

Batch request: Tm per item, same order as input.
1. GAAAACGAAAGTTGATTC ((((((....)))..)))
2. GGCTCCGAAAGGAACGCC ((((((....)))..)))
3. GCGCAGGGAAACCTGTGC ((.((((....)))).))
4. GATCTTGTTAAGATC ((((((...))))))

Result:
1. 33.6 °C
2. 50.5 °C
3. 57.7 °C
4. 45.8 °C

---

protocolNotes: melting temperature; fluorescence melt of hairpins on a sequencing array, two-state fit, raised by 9.35 °C to match UV melts
assaySetup: sodium 0.088 M
metric: Tm (°C)
Numbers only, in °C.

GTGCATGGAAACATGTAC ((.((((....)))).)) :: 48.7

Batch request: Tm per item, same order as input.
1. GTGTTGCGAAAGCACAC (((.(((....))))))
2. GTTCCCCCGAAAGGGAAC (((..(((....))))))

Result:
1: 56.3; 2: 51.6

---

protocolNotes: melting temperature; fluorescence melt of hairpins on a sequencing array, two-state fit, raised by 9.35 °C to match UV melts
assaySetup: sodium 0.088 M
Assign Tm to each entry below.
One number for each entry, in °C.

Example entries begin here.
GCCTTGCGAAAGCATCGC ((..(((....)))..)) :: 51
GATCAGTTCCCTGATC ((((((....)))))) :: 49.7

Now look at this one.
Ask: Item GCCATGCGAAAGCAGTGC ((..(((....)))..)) : provide Tm
Result: 39.7

---

protocolNotes: melting temperature; fluorescence melt of hairpins on a sequencing array, two-state fit, raised by 9.35 °C to match UV melts
assaySetup: sodium 0.088 M
Assign Tm to each entry below.
One number for each entry, in °C.

Example entries begin here.
GGTCAGCGAAAGCTTACC (((.(((....))).))) :: 48.9
GCGAAGTCTCGC ((((....)))) :: 47.7
GCTAAGCGAAAGCCCAGC (((..((....))..))) :: 34.5
GTCATCGGAAACGATGGC (.(((((....))))).) :: 56.2
GGCTGTGGAAACACGGCC (((.(((....))).))) :: 60.8

Now look at this one.
Ask: Item GCAGACCCGAAAGGGTGC (((..(((....)))))) : provide Tm
Result: 50.3

---

protocolNotes: folding enthalpy; higher = less favourable; fluorescence melt of hairpins on a sequencing array, two-state fit
assaySetup: sodium 0.088 M
Could you label it yes if measured folding enthalpy is -20 kcal/mol or higher, and no otherwise?

GGCATCGGAAACAACGCC (((.(.(....).).))) :: yes
GGGATCGAAAGATTCCCC ((((((....)))..))) :: yes
GGTAACGAAAGTTCACC ((((((....))).))) :: no
GGGTGCCGAAAGGCCCCC (((.(((....))).))) :: yes
GACCAAGCGAAAGCTGTC (((..(((....)))))) :: yes

Ask: Can GTACTCGAAAGAGGATAC ((((((....)))..))) be said to have folding enthalpy at or above -20 kcal/mol?
Result: yes

Ask: Can GATCCTAGGAGGATC ((((((...)))))) be said to have folding enthalpy at or above -20 kcal/mol?
Result: no
